Collected CC50 values appear next to each entry.
- experiment notes: Toxicity in african green monkey Vero cells by alamar blue assay
- Format: cell-based
- details: chlorocebus sabaeus, read-out: LD50 (the source's name)
readout name: CC50 (µM)

>  <molecule>
O=S(=O)(F)Cc1ccccc1 [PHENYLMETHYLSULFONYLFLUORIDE]

>  <numeric value>
133

$$$$
>  <molecule>
CC1(C)CC[C@]2(C(=O)O)CC[C@]3(C)C(=CC[C@@H]4[C@@]5(C)C[C@@H](O)[C@H](O)C(C)(C)[C@@H]5CC[C@]43C)[C@@H]2C1

>  <numeric value>
237

$$$$
>  <molecule>
NCCc1ccc(S(=O)(=O)F)cc1

>  <numeric value>
36.9

$$$$

Source of measurements: ChEMBL document CHEMBL1157816
